Values were extracted from PubChem BioAssay (NCI).

test system: SR leukemia; experiment: NCI tumour cell line growth inhibition, 48 h
GI50 overview

Please review the entries below; each comes with its answer.
> print(dat)
                              sample.smiles  assay.target  result.value
1          CCN(Cc1ccc(F)cc1)c1ccc(CO)c(F)c1   SR leukemia      15100 nM
2  COc1cc2c(cc1O)CC[C@@H]1[C@@H]2CC[C@]2(C)[C@@H](OCCN(C)C)CC[C@@H]12   SR leukemia        148 nM

The record that follows has no GI50 shown yet.
// lookup GI50 for COc1ccc(/C=C/C(=O)c2ccc(O)c(CN3CCN(c4cc5c(cc4F)c(=O)c(C(=O)O)cn5C4CC4)CC3)c2)cc1
354 nM
